Data origin: patent US12612410B2

# TARGET DESC: UniProtKB Q9NWZ3
# METHOD: RBC HotSpot Kinase Assay, IRAK4
# Type: biochemical
# Parameters: purchased Reaction Biology (RBC), HotSpot kinase assay
# ASSAY CONDITIONS: isolated kinase, 33P-ATP
Category scheme (IC50): low-valued (below 1 nM), mid-valued (1 nM to below 4 nM), high-valued (4 nM or more)

Lab note: sort FC(F)c1cn2c(-c3cccc(N[C@H]4CNCCC4(F)F)n3)cnc2cn1 into the matching IC50 band.
low-valued

Lab note: sort FC(F)(F)COc1cn2c(-c3cccc(N[C@H]4CNCC45CC5)n3)cnc2cn1 into the matching IC50 band.
mid-valued

Lab note: sort CC(C)(O)c1cn2c(-c3nc(N[C@H]4CNCC[C@@H]4F)c(F)cc3F)cnc2cn1 into the matching IC50 band.
low-valued

Lab note: sort FC(F)(F)COc1cn2c(-c3cccc(N[C@H]4CNC[C@@H]4C(F)(F)F)n3)cnc2cn1 into the matching IC50 band.
high-valued

Lab note: sort CC(C)Oc1cn2c(-c3cccc(N[C@@H]4CCCNC4)n3)cnc2cn1 into the matching IC50 band.
high-valued

Lab note: sort Cn1cc(-c2cn3c(-c4cccc(N[C@@H]5CCCNC5)n4)cnc3cn2)cn1 into the matching IC50 band.
high-valued

Lab note: sort F[C@H]1CNC[C@@H]1Nc1cccc(-c2cnc3cnc(OCC4CC4)cn23)n1 into the matching IC50 band.
mid-valued

Lab note: sort CC(C)(C)c1cn2c(-c3nc(N[C@H]4CNCC[C@@H]4F)c(F)cc3F)cnc2cn1 into the matching IC50 band.
mid-valued

Lab note: sort CC1(c2cn3c(-c4cccc(N[C@@H]5CCNC5)n4)cnc3cn2)CC1 into the matching IC50 band.
low-valued

Lab note: sort CC(C)Oc1cn2c(-c3cccc(N[C@H]4CNC[C@@H]4F)n3)cnc2cn1 into the matching IC50 band.
low-valued

Lab note: sort F[C@H]1CNC[C@@H]1Nc1cccc(-c2cnc3cnc(-c4cnn5ccccc45)cn23)n1 into the matching IC50 band.
low-valued

###

# TARGET DESC: IRAK4 (Homo sapiens, UniProt Q9NWZ3)
# Sequence (Q9NWZ3 whole entry): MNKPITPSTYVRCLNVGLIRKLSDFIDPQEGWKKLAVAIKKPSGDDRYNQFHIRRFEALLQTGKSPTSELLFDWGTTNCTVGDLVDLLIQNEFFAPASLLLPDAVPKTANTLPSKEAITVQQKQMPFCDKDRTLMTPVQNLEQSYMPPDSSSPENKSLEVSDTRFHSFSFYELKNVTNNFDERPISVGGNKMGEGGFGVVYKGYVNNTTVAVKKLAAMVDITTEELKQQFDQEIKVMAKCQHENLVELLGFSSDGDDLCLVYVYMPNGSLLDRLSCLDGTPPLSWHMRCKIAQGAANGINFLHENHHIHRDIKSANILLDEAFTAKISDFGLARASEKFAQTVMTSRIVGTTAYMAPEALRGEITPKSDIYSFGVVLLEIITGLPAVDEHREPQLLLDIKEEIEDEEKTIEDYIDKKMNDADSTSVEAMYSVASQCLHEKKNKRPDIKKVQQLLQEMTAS
# METHOD: Reaction Biology NanoBRET target engagement assay, IRAK4
# Type: cell-based
# ASSAY CONDITIONS: transfected HEK-293 cells
REPORTED METRIC: IC50

Please state recorded IC50 (tested on IRAK4 (Homo sapiens, UniProt Q9NWZ3)) of O=S1(=O)CCCN1c1cn2c(-c3cccc(N[C@H]4CNCC[C@@H]4F)n3)cnc2cn1 [Compound 97]
0.9 nM

Please state recorded IC50 (tested on IRAK4 (Homo sapiens, UniProt Q9NWZ3)) of CC(C)(C)c1cn2c(-c3nc(N[C@@H]4CCCNC4)c(F)cc3F)cnc2cn1 [Compound 126]
< 0.5 nM

Please state recorded IC50 (tested on IRAK4 (Homo sapiens, UniProt Q9NWZ3)) of FC(F)COc1cn2c(-c3cccc(N[C@H]4CNC[C@@H]4F)n3)cnc2cn1 [Compound 58]
< 0.5 nM

Please state recorded IC50 (tested on IRAK4 (Homo sapiens, UniProt Q9NWZ3)) of CC(C)(O)c1cn2c(-c3nc(N[C@H]4CNCC[C@@H]4F)c(F)cc3F)cnc2cn1 [Compound 35]
< 0.5 nM

Please state recorded IC50 (tested on IRAK4 (Homo sapiens, UniProt Q9NWZ3)) of CC(C)(C)c1cn2c(-c3cccc(N[C@@H]4CCCNC4)n3)cnc2cn1 [Compound 129]
< 0.5 nM

Please state recorded IC50 (tested on IRAK4 (Homo sapiens, UniProt Q9NWZ3)) of F[C@H]1CNC[C@@H]1Nc1cccc(-c2cnc3cnc(C4CC4)cn23)n1 [Compound 50]
1 nM

Please state recorded IC50 (tested on IRAK4 (Homo sapiens, UniProt Q9NWZ3)) of CC(O)(c1cn2c(-c3cccc(N[C@H]4CNCC[C@@H]4F)n3)cnc2cn1)C(F)(F)F (single isomer, unassigned) [Compound 82]
< 0.5 nM

Please state recorded IC50 (tested on IRAK4 (Homo sapiens, UniProt Q9NWZ3)) of CC(C)(C)c1cn2c(-c3nc(N[C@H]4CNCC[C@@H]4F)c(F)cc3F)cnc2cn1 [Compound 127]
0.4 nM

Please state recorded IC50 (tested on IRAK4 (Homo sapiens, UniProt Q9NWZ3)) of O=C1CCCN1c1cn2c(-c3cccc(N[C@H]4CNCC[C@@H]4F)n3)cnc2cn1 [Compound 119]
2 nM

Please state recorded IC50 (tested on IRAK4 (Homo sapiens, UniProt Q9NWZ3)) of CC(C)(C)c1cn2c(-c3cccc(N[C@H]4CNCC[C@@H]4F)n3)cnc2cn1 [Compound 130]
< 0.5 nM

Please state recorded IC50 (tested on IRAK4 (Homo sapiens, UniProt Q9NWZ3)) of F[C@H]1CCNC[C@@H]1Nc1cccc(-c2cnc3cnc(C4CC4)cn23)n1 [Compound 51]
0.6 nM

Please state recorded IC50 (tested on IRAK4 (Homo sapiens, UniProt Q9NWZ3)) of CC(O)(c1cn2c(-c3cccc(N[C@@H]4CCCNC4)n3)cnc2cn1)C(F)(F)F (single isomer, unassigned) [Compound 81]
< 0.5 nM

Please state recorded IC50 (tested on IRAK4 (Homo sapiens, UniProt Q9NWZ3)) of CC1(c2cn3c(-c4cccc(N[C@H]5CNC[C@@H]5F)n4)cnc3cn2)CC1 [Compound 1]
< 0.5 nM

Please state recorded IC50 (tested on IRAK4 (Homo sapiens, UniProt Q9NWZ3)) of FC(F)c1cn2c(-c3cccc(N[C@H]4CNCC[C@@H]4F)n3)cnc2cn1 [Compound 25]
< 0.5 nM

Please state recorded IC50 (tested on IRAK4 (Homo sapiens, UniProt Q9NWZ3)) of CC(O)(c1cn2c(-c3cccc(N[C@H]4CNC[C@@H]4F)n3)cnc2cn1)C(F)(F)F (single isomer, unassigned) [Compound 77]
< 0.5 nM

###

# TARGET DESC: FLT3 (Homo sapiens)
# Sequence (P36888 27-993): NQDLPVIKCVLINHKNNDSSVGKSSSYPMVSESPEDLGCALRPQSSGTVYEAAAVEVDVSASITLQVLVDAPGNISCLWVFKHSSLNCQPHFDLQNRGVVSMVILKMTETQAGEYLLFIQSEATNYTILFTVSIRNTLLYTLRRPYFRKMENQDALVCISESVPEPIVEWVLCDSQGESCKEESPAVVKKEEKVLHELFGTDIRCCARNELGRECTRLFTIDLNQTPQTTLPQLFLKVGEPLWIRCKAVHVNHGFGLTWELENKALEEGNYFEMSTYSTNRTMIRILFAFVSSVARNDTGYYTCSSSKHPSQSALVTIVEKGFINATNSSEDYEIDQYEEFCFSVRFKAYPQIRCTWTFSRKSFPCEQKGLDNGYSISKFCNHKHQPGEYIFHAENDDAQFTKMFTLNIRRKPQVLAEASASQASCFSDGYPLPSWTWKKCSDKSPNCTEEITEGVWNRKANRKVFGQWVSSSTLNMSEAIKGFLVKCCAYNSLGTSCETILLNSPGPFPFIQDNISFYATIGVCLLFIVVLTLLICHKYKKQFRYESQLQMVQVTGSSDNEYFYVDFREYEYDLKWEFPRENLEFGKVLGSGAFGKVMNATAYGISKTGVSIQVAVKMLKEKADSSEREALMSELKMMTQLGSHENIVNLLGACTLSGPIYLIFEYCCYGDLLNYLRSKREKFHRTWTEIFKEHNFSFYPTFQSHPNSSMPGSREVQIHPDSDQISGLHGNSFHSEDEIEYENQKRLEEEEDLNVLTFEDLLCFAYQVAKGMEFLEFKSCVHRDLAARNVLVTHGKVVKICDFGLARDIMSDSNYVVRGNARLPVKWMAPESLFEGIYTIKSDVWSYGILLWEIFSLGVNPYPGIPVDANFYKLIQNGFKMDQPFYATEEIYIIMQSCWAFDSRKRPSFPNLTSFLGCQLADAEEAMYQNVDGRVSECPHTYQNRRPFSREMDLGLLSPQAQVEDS
# METHOD: RBC HotSpot Kinase Assay, FLT3
# Type: biochemical
# Design: purchased Reaction Biology (RBC), HotSpot kinase assay
# ASSAY CONDITIONS: isolated kinase, 33P-ATP
I'd appreciate it if you could supply IC50 values for the items below.

May I ask what IC50 has been recorded for c1cc(N[C@@H]2CCCNC2)nc(-c2cnc3cnccn23)c1 ?
< 0.5 nM

May I ask what IC50 has been recorded for F[C@H]1CCNC[C@@H]1Nc1cccc(-c2cnc3cnccn23)n1 ?
< 0.5 nM

May I ask what IC50 has been recorded for CC1(c2cn3c(-c4cccc(N[C@H]5CNCC56CC6)n4)cnc3cn2)CC1 ?
< 0.5 nM

###

# Tested on: MOLM14 D835Y cells
# METHOD: MOLM14 D835Y cell viability assay (Cell Titer Glo)
# Format: cell-based
# ASSAY CONDITIONS: Homo sapiens, MOLM-14, 48 h
REPORTED METRIC: pIC50
A value of pIC50 is the negative decimal logarithm of a concentration given in moles per litre.

May I ask what pIC50 has been recorded for CC(O)(c1cn2c(-c3cccc(N[C@H]4CNCC[C@@H]4F)n3)cnc2cn1)C(F)(F)F (single isomer, unassigned) [Compound 80] ?
7.17

May I ask what pIC50 has been recorded for CC(C)(O)c1cn2c(-c3nc(N[C@H]4CNCC[C@@H]4F)c(F)cc3F)cnc2cn1 [Compound 35] ?
7.03

May I ask what pIC50 has been recorded for CC(O)(c1cn2c(-c3nc(N[C@H]4CNCC[C@@H]4F)c(F)cc3F)cnc2cn1)C(F)(F)F (single isomer, unassigned) [Compound 92] ?
7.06

May I ask what pIC50 has been recorded for CC(C)(O)c1cn2c(-c3nc(N[C@@H]4CCCNC4)c(F)cc3F)cnc2cn1 [Compound 34] ?
6.97

May I ask what pIC50 has been recorded for O=C1COCCN1c1cn2c(-c3cccc(N[C@H]4CNC[C@@H]4F)n3)cnc2cn1 [Compound 110] ?
6.81
